# Test system: 565232-114-T-J1-PDC complex spheroid viability;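 also: spheroids exposed to compounds for 7 days before readout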
# Experiment Summary: Anticancer human tumor 565232-114-T-J1-PDC patient-derived bladder carcinoma cell line growth inhibition [CLK]
# Experimental Conditions: second compound 3.16 µM; first compound 0.0316 µM; stronger effect = lower value
# label = Yes if viability, T/C < 0.3% else No

Solved entries:
Molecule: CC1(C)CCC(CN2CCN(c3ccc(C(=O)NS(=O)(=O)c4ccc(NCC5CCOCC5)c([N+](=O)[O-])c4)c(Oc4cnc5[nH]ccc5c4)c3)CC2)=C(c2ccc(Cl)cc2)C1 + CNC(=O)c1ccc(Nc2nc(OC3CCCC3)c3c(-c4ccc5nc(C)oc5c4)c[nH]c3n2)c(OC)c1
Group: No
--
Molecule: Cn1ncnc1[C@H]1c2n[nH]c(=O)c3cc(F)cc(c23)N[C@@H]1c1ccc(F)cc1 + CN1CCN(c2cc(C(=O)Nc3cc4cc(-c5cnn(C)c5)ccc4cn3)ccn2)CC1
Group: No
--
Molecule: CCc1c2c(nc3ccc(O)cc13)-c1cc3c(c(=O)n1C2)COC(=O)[C@]3(O)CC + CN1CCN(c2cc(C(=O)Nc3cc4cc(-c5cnn(C)c5)ccc4cn3)ccn2)CC1
Group: Yes
--
Molecule: O=c1[nH]cc(F)c(=O)[nH]1 + CN1CCN(c2cc(C(=O)Nc3cc4cc(-c5cnn(C)c5)ccc4cn3)ccn2)CC1
Group: Yes
--
Molecule: CC1(C)CCC(CN2CCN(c3ccc(C(=O)NS(=O)(=O)c4ccc(NCC5CCOCC5)c([N+](=O)[O-])c4)c(Oc4cnc5[nH]ccc5c4)c3)CC2)=C(c2ccc(Cl)cc2)C1 + CN1CCN(c2cc(C(=O)Nc3cc4cc(-c5cnn(C)c5)ccc4cn3)ccn2)CC1
Group: No

Please turn your attention to the following entry.
Enquiry: API: query returns whether the molecule falls strictly under 0.3% in viability, T/C. Query: CC(=O)O[C@H]1C(=O)[C@@]2(C)[C@H]([C@H](OC(=O)c3ccccc3)[C@]3(O)C[C@H](OC(=O)[C@H](O)[C@@H](NC(=O)c4ccccc4)c4ccccc4)C(C)=C1C3(C)C)[C@]1(OC(C)=O)CO[C@@H]1C[C@@H]2O + CN1CCN(c2cc(C(=O)Nc3cc4cc(-c5cnn(C)c5)ccc4cn3)ccn2)CC1
Return: Yes
